Field: survival. Provide a value for each of the compounds that follow.
- Tested on: DeltatarO mutant
- Assay: S. aureus survival, RN4220 and DeltatarO strains – OD600, teichoic acid synthesis inhibitors, primary screen (AID 463173)
- Experimental Parameters: S. aureus RN4220 wild type/DeltatarO growth, OD600, 18 h, stronger effect = lower value, screened at 18.75 µg/mL (by protocol)
In all, about 52,000 compounds went through this assay and about 4,300 (8.3%) were called active. This excerpt belongs to a sample that is enriched for actives.
Numbers only, in %.

Cc1ccc(CN(Cc2ccco2)C(=O)COc2cc(C)c(Cl)c(C)c2)cc1	58
O=C(CN1C(=O)CC(c2ccco2)Sc2ccccc21)Nc1cccc(C(F)(F)F)c1 (stereo not drawn)	103
O=C(CSc1ncc(-c2ccccc2)[nH]1)Nc1cccc(Br)c1	9

Provide each entry's survival from the list below.
1. COC(=O)Cc1c(C)nc2nc(-c3ccc(C)cc3)[nH]n2c1=O
2. Cc1ccc(-c2nnc3ccccc3c2C(=O)Nc2ccc(C)c(F)c2)cc1
3. CCOc1ccccc1NC(=O)c1c(NC(=O)Cc2ccccc2)sc2c1CCCC2
4. CCOc1ccc(-c2nnc(SCC(=O)NC3CCCCC3)nc2-c2ccc(OCC)c(OC)c2)cc1OC
5. CCC(C)(C)NC(=O)C(NS(=O)(=O)c1cccs1)c1ccccc1 (stereo not drawn)

Result string:
[92, 80, 81, 78, 84]

Please supply survival for each of the following items, keeping them in order.
1. Cc1cccc(NC(=O)CSc2ncc(-c3ccccc3)[nH]2)c1C
2. CCc1nn2c(=O)cc(COC(=O)c3ccc4c(c3)OCO4)nc2s1
3. CCOc1ccccc1NC(=O)c1c(NC(=O)c2cccc(C)c2)sc2c1CCCC2
4. CC1CCC(N2CC(=O)N(C3CCCC3)C(c3ccc(Cl)cc3)C2=O)CC1 (stereo not drawn)
5. Cc1cc(Br)ccc1NC(=O)C(NS(=O)(=O)c1cccs1)c1ccccc1 (stereo not drawn)

Result string:
1: 51; 2: 76; 3: 76; 4: 79; 5: 31

* * *

- Test system: DeltatarO mutant
- Assay: S. aureus survival, RN4220 and DeltatarO strains – OD600, teichoic acid synthesis inhibitors, primary screen (AID 463173)
- Experimental Parameters: S. aureus RN4220 wild type/DeltatarO growth, OD600, 18 h, stronger effect = lower value, screened at 18.75 µg/mL (by protocol)
Screen size: about 52,000 compounds; about 4,300 (8.3%) were called active. Only a selection was taken, and actives are over-represented in it overall.
Field: survival. Provide a value for each of the molecules that follow.
Answers are plain numbers, in %.

O=C(c1ccco1)c1cn(CCOc2ccc(Cl)cc2)c2ccccc12	78

# return survival for each item in the list
1. COc1ccc(NC(=O)C2=CC(c3ccc4c(c3)OCO4)=NS(=O)(=O)N2C)cc1OC
2. CCOc1ccccc1NC(=O)c1cc(S(=O)(=O)NC2CCCC2)ccc1F

Result string:
1: 79; 2: 81

* * *

- Tested on: DeltatarO mutant
- Assay: S. aureus survival, RN4220 and DeltatarO strains – OD600, teichoic acid synthesis inhibitors, primary screen (AID 463173)
- Experimental Parameters: S. aureus RN4220 wild type/DeltatarO growth, OD600, 18 h, stronger effect = lower value, screened at 18.75 µg/mL (by protocol)
About 4,300 (8.3%) of roughly 52,000 compounds were called active. The entries come from a sample that favours actives as a whole.
Give survival for every item shown.
One number for each entry, in %.

O=C(Nc1ccc(-c2nc3cc(NC(=O)c4ccccc4F)ccc3o2)cc1)c1ccccc1F	90

Give one value of survival per listed compound.
1. CCOc1ccc(NC(=O)CC2C(=O)N(c3cccc(C)c3)C(=O)N2Cc2cccs2)cc1 (stereo not drawn)
2. Cc1[nH]c2ccc(CNS(=O)(=O)c3ccc(S(=O)(=O)N4CCOCC4)cc3)cc2c1C

Result string:
1. 89
2. 91

* * *

What survival was measured for each of the following?
- System: DeltatarO mutant
- Assay: S. aureus survival, RN4220 and DeltatarO strains – OD600, teichoic acid synthesis inhibitors, primary screen (AID 463173)
- Experimental Parameters: S. aureus RN4220 wild type/DeltatarO growth, OD600, 18 h, stronger effect = lower value, screened at 18.75 µg/mL (by protocol)
The campaign covered roughly 52,000 compounds. About 4,300 (8.3%) were called active. The sample holds actives, similar compounds and a random draw of the others, so the mix is not that of the screen.
One number for each entry, in %.

Consider the worked cases shown below.
CCOc1ccccc1-c1noc(CCCC(=O)Nc2cccc(C(F)(F)F)c2)n1	61
Cc1cc(Nc2cccc(C(F)(F)F)c2)nc2ccc(NC(=O)c3ccc(=O)[nH]c3)cc12	37
COc1cccc(C(=O)Nc2ccc3oc(-c4cccc5c(Br)cccc45)nc3c2)c1	59
COc1ccc(CC(=O)Nc2ccc3nc(Nc4cccc(Cl)c4)cc(C)c3c2)cc1OC	46

Now for the compound whose survival we want.
Query string: Could you share which survival value was measured for CCOC(=O)c1ccc(NC(=O)CCCc2nc(-c3cc(OC)c(OC)c(OC)c3)no2)cc1 ?
Result string: 44

* * *

- System: DeltatarO mutant
- Assay: S. aureus survival, RN4220 and DeltatarO strains – OD600, teichoic acid synthesis inhibitors, primary screen (AID 463173)
- Experimental Parameters: S. aureus RN4220 wild type/DeltatarO growth, OD600, 18 h, stronger effect = lower value, screened at 18.75 µg/mL (by protocol)
Among all 52,000 compounds or so, about 4,300 (8.3%) were called active. The sample as a whole holds a higher share of actives than the screen did.
I'd appreciate it if you could supply survival values for the items below.
One number for each entry, in %.

# count of solved cases: 3
CCOC(=O)CNC(=O)N1[C@H](c2cccs2)[C@@H](C)C(=O)[C@@H](C)[C@@H]1c1cccs1	55
COc1ccc(Cl)cc1-n1nnc(-c2nsc(NC(=O)c3ccccc3Cl)n2)c1C	23
CCc1ccc(CN(Cc2ccco2)C(=O)COc2ccc(Cl)cc2C)cc1	55

Each of the following entries comes with a recorded value; kindly state survival for each.
1. Cc1nn(-c2ccc(N3CCCCC3)nn2)c(C)c1CCC(=O)NCc1ccc(Cl)cc1
2. CCN(CC)C(=O)/C(=C\c1ccc(OC)c(OC)c1)n1ccccc1=O
3. Clc1cccc(-c2nnc(CN3CCN(c4ccccn4)CC3)o2)c1

Result string:
[79, 103, 82]

Quick one: give me survival for each item below, same order please.
1. Cc1ccc(CNC(=O)c2ccc3c(c2)N(Cc2ccccc2Cl)C(=O)CS3)cc1
2. CCOc1no[n+]([O-])c1-c1ccccc1
3. CCc1ccc(CNC(=O)CN2C(=O)CCn3nc(-c4cn(C)c5ccccc45)cc32)cc1

Result string:
[50, 90, 81]

Working through the 5 compounds below one at a time, give survival for each.
1. COc1ccc(S(=O)(=O)N(CCc2ccccc2)CC(=O)NCc2ccccc2)cc1OC
2. O=S(=O)(c1ccc2[nH]c3c(c2c1)CCCCC3)N1CCN(c2ccccc2)CC1
3. CN(C1CCCCC1)S(=O)(=O)c1ccc(C(=O)Nc2sc3c(c2C(N)=O)CC(C)(C)NC3(C)C)cc1
4. COc1cc(OC)c(N(C)C(=O)c2sc3nc4n(c(=O)c3c2C)CCCC4)cc1Cl
5. COC(=O)COc1ccc(C2C(C(=O)OC)=C(C)NC3=C2C(=O)c2ccccc23)cc1OC (stereo unspecified)

Result string:
62
91
84
53
29

Report survival for each item below.
1. Cc1ccc(C)c(CN2C(=O)CSc3ccc(C(=O)NCc4ccc(F)cc4)cc32)c1
2. CCOC(=O)COc1ccc(C2C(C(=O)OC)=C(C)NC3=C2C(=O)c2ccccc23)cc1Cl (stereo unspecified)
3. CCOc1cc(C2C(C(=O)OC)=C(C)NC3=C2C(=O)c2ccccc23)c(Br)cc1OC (stereo unspecified)
4. CCC1CN(C(=O)NCc2cccc(OC)c2)c2cc(Cl)ccc2O1 (stereo unspecified)
5. Cc1cccc(CCNC(=O)c2sc3nc4n(c(=O)c3c2C)CCCC4)c1
6. CCN1CCSc2ccc(C(=O)NCc3ccccc3Br)cc21
7. Cc1ccc(CNC(=O)c2ccc3c(c2)N(Cc2cccc(Cl)c2)C(=O)CS3)cc1

Result string:
1: 46; 2: 119; 3: 52; 4: 43; 5: 85; 6: 62; 7: 40

* * *

- Test system: DeltatarO mutant
- Assay: S. aureus survival, RN4220 and DeltatarO strains – OD600, teichoic acid synthesis inhibitors, primary screen (AID 463173)
- Experimental Parameters: S. aureus RN4220 wild type/DeltatarO growth, OD600, 18 h, stronger effect = lower value, screened at 18.75 µg/mL (by protocol)
Among all 52,000 compounds or so, about 4,300 (8.3%) were called active. What follows is part of a selection rich in actives, with near analogues and random picks from the rest.
Threshold 80%. survival below it: 1. survival at it or above: -1.

Cc1ccc(Cl)cc1-n1ncc2c(NCCC3=CCCCC3)ncnc21	-1
O=C(O)c1cc2nc3c(c(C(F)(F)F)n2n1)CCC3	-1
O=C(c1ccc2c(c1)OCCO2)N(Cc1cccnc1)c1nc2c(F)cc(F)cc2s1	-1
COc1ccc(NC(=O)c2cc(C3CC3)nc3c2c(C)nn3-c2ccccc2)cc1	1
O=C(O)C1C2C=CC(C2)C1C(=O)NCc1cccs1 (centres undefined)	-1
O=C(O)c1ccc(-c2cccc(Cl)c2)o1	1
Cc1c(CCNS(=O)(=O)c2ccccc2)sc2nc(-c3ccc(Cl)cc3)nn12	1
Cc1c(-c2ccc(Br)cc2)c(=O)oc2ccc(OC(=O)N3CCOCC3)cc12	-1

Query string: Bench note: check whether CC(=O)c1ccc(NC(=O)c2cc(C)nc3c2c(C)nn3-c2ccc(C)cc2)cc1 shows survival below 80%
Result string: -1
